# credit: patent US20170224664A1

assay: Solubility of SOL at different pH; assay type: physicochemical; settings: pH 6.2, aqueous buffer
parameter: solubility
Form entry: enter the amount, then its unit.

# return recorded solubility for input CC[C@H]1OC(=O)[C@@](C)(F)C(=O)[C@H](C)[C@@H](O[C@@H]2O[C@H](C)C[C@H](N(C)C)[C@H]2O)[C@](C)(OC)C[C@@H](C)C(=O)[C@H](C)[C@H]2N(CCCCn3cc(-c4cccc(N)c4)nn3)C(=O)O[C@]12C
860 µg/mL

* * *

assay: Solubility of SOL at different pH; assay type: physicochemical; conditions: pH 7.5, aqueous buffer
parameter: solubility (µg/mL)
Your answer is read as µg/mL, so omit the unit and give the number.

Assign solubility to the following record: CC[C@H]1OC(=O)[C@@](C)(F)C(=O)[C@H](C)[C@@H](O[C@@H]2O[C@H](C)C[C@H](N(C)C)[C@H]2O)[C@](C)(OC)C[C@@H](C)C(=O)[C@H](C)[C@H]2N(CCCCn3cc(-c4cccc(N)c4)nn3)C(=O)O[C@]12C
70
